Provide the reported growth inhibition of each item.
- assay-overview: NCI Yeast Anticancer Drug Screen. Data for the cln2 rad14 strain (AID 165);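 also: 0% = growth equal to vehicle treated cultures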
- reported-conditions: S. cerevisiae cln2 rad14 strain, at 50.0 µM, hits give high values
The panel holds about 79,000 compounds, 15% with a hit somewhere; the sample as a whole holds those more often.
Please reply with the bare figure in % and do not write the unit itself.

Prompt line: Consider the compound shown here: `CC[C@@]1(O)C(=O)OCc2c1cc1n(c2=O)Cc2cc3c(N)cccc3nc2-1` What is its recorded growth inhibition?
Response line: -8.35

Prompt line: What does the data say about its growth inhibition? Entry: `CCN(CC)C(C)(C)C(=O)/C=C/c1ccccc1`
Response line: 7.15

Prompt line: Report growth inhibition for OCC(Cn1cncn1)(c1ccc(F)cc1F)n1cncn1 (stereo unspecified) please.
Response line: 63

Prompt line: Reported growth inhibition, compound `NC(=NCc1ccccc1)N/N=C\c1ccnc2ccccc12` : ____
Response line: 21.1

Prompt line: State the recorded growth inhibition for this entry: CCCCCCCCCCCCCCC(C(=O)[O-])[n+]1ccccc1 (stereo unspecified)
Response line: 95.8

Prompt line: Quick one: growth inhibition for `O=C1c2ccccc2-c2n[nH]c3cccc1c23` ?
Response line: 38.9

Prompt line: Give its growth inhibition value. Item: `CC(=O)[O][Bi]([c]1ccccc1)[c]1ccccc1`
Response line: 84.7

Prompt line: Return reported growth inhibition; argument: CCC(C)COC(=O)c1ccc(N=Cc2ccc(C=Nc3ccc(C(=O)OCC(C)CC)cc3)cc2)cc1 (stereo unspecified)
Response line: 41

Prompt line: Requested field: growth inhibition. Item: CC(C)C1=CCC2C(=C1)CCC1C(C)(C(=O)O)CCCC21C (stereo unspecified) (tested in a mixture with another compound)
Response line: 89.8

Prompt line: Query: growth inhibition; subject: CCC(C(=O)O)C1=C(c2ccccc2)CCc2ccccc21 (stereo unspecified)
Response line: 98.8

Prompt line: Which value of growth inhibition has been reported for `O=Nc1c(NO)ccc2nn(-c3ccccc3)nc12` in the records?
Response line: 89.1
